Source listed as ChEMBL document CHEMBL4513216.

Tested on: Plasmodium berghei
Test: Screen against P. berghei liver stage (PbLuc), transformed with Luciferase, at 10uM
Format: functional, HepG2
Settings: tested at 10 uM
In all, about 69,000 compounds went through this assay and about 8,600 (12%) showed an effect of 50% or more. The full list was thinned out, with strong results kept by preference.
So basically, if INHIBITION comes in under 40% it's 1, and if it's 40% or more it's 0.

# check: INHIBITION < 40% for "C=Cn1ncc(CN2C[C@@H]3C[C@@H](O)CN3C[C@@H]2Cc2ccccc2)c1C"
0

Identify whether the compound "C=Cn1ncc(CN2C[C@@H]3CCCN3C[C@H]2Cc2ccccc2)c1C" records INHIBITION below 40%.
0

Please determine if "CCCn1ncc(CN2C[C@@H]3CCCN3C[C@H]2Cc2ccccc2)c1C" is below 40% in terms of INHIBITION.
0

Answer whether the compound "Cc1ccc(OCCN2CCC(c3ccnn3CCO)CC2)cc1" has INHIBITION strictly less than 40%
1

Regarding "C=Cn1ncc(CN2C[C@@H]3CCCN3C[C@H]2CCSC)c1C" , kindly confirm whether its INHIBITION is beneath 40%.
1
